Test: Biliary excretion when administered intravenously at a dose of 2.5 mg/kg in rats
Type: ADME, organism-based
Design: dose 2.5 mg/kg, route intravenous
Conditions: rat, bile, iv, read-out: Biliary excretion
endpoint name: dose excreted (%)

A = CC(C)C[C@H](CC(=O)NO)C(=O)N[C@@H](Cc1c[nH]c2ccccc12)C(=O)NCc1ccc(CN(C)C)cc1
B = CC(C)C[C@H](CC(=O)NO)C(=O)N[C@@H](Cc1c[nH]c2ccccc12)C(=O)NCCCCN(C)C
Lookup: Between the entries labeled A and B , whose measured dose excreted is lower? Please identify the chosen entry by its label.
Found: B

----------
Assay: Plasma half-life in rats
Format: ADME, organism-based
Settings: rat
endpoint name: half-life (min)

Some solved cases for reference:
CSCCNC(=O)[C@H](Cc1c[nH]c2ccccc12)NC(=O)[C@@H](CC(=O)NO)CC(C)C    32.4
CC(C)C[C@H](CC(=O)NO)C(=O)N[C@@H](Cc1c[nH]c2ccccc12)C(=O)NCCS(N)(=O)=O    17.6

a = COc1ccc(C(=O)CCCCNC(=O)[C@H](Cc2c[nH]c3ccccc23)NC(=O)[C@@H](CC(=O)NO)CC(C)C)cc1
b = CC(C)C[C@H](CC(=O)NO)C(=O)N[C@@H](Cc1c[nH]c2ccccc12)C(=O)NCC[S+](C)[O-] (stereo partly specified)
c = CC(C)C[C@H](CC(=O)NO)C(=O)N[C@@H](Cc1c[nH]c2ccccc12)C(=O)NCCSCCN1CCOCC1
d = CC(C)C[C@H](CC(=O)NO)C(=O)N[C@@H](Cc1c[nH]c2ccccc12)C(=O)NCCS(C)(=O)=O
Lookup: Put the items in order so that reported half-life rises from first to last. # format: label list in the order the request specifies
Found: a, b, d, c
